Source listed as patent US8193356B2.

Record form. Attribute: melting point. Fill in for each entry.

Recorded result, O=c1c2c(CC3CCCCC3)n[nH]c2c2cccnc2n1-c1ccccc1 [Example 13] , melting point: 280 to 281 °C

get_value(item= O=c1c2c(Cc3ccccc3[N+](=O)[O-])n[nH]c2c2cccnc2n1-c1cccc(C(F)(F)F)c1 (hydrate or solvate) [Example 41] , readout=melting point) returns 282 to 284 °C

# melting point of O=c1c2c(Cc3cccc(C(F)(F)F)c3)n[nH]c2c2cccnc2n1-c1ccccc1 [Example 9] = 303 to 305 °C

Sure, the documented melting point for O=c1c2c(Cc3cccc(OC(F)(F)F)c3)n[nH]c2c2cccnc2n1-c1ccccc1 (hydrate or solvate) [Example 5] is 253 to 254 °C

Quick note, melting point for O=c1c2c(Cc3ccccc3[N+](=O)[O-])n[nH]c2c2cccnc2n1-c1cccc(OC(F)(F)F)c1 (hydrate or solvate) [Example 35] landed at 274 to 276 °C

The compound listed as CCC(c1ccccc1)c1n[nH]c2c1c(=O)n(-c1ccccc1)c1ncccc21 (stereo not drawn) [Example 43] shows melting point equal to 233 to 235 °C

Entry CC(c1ccccc1)c1n[nH]c2c1c(=O)n(-c1cccc(OC(F)(F)F)c1)c1ncccc21 (stereo not drawn) [Example 36] , melting point reported as 183 to 185 °C

# melting point (compound: O=c1c2c(Cc3ccc(C(F)(F)F)cc3)n[nH]c2c2cccnc2n1-c1ccccc1 [Example 7] ) is 216 to 219 °C

Measured melting point, O=c1c2c(Cc3ccccc3Cl)n[nH]c2c2cccnc2n1-c1cccc(C(F)(F)F)c1 (hydrate or solvate) [Example 39] : 276 to 278 °C

GET /value?item= O=c1c2c(Cc3ccc(OC(F)(F)F)cc3)n[nH]c2c2cccnc2n1-c1cccc(C(F)(F)F)c1 [Example 22] &field=melting point returns 134 to 137 °C

For this compound ( O=c1c2c(Cc3ccccc3)n[nH]c2c2cnccc2n1-c1ccccc1 [Example 15] ), measured melting point is 284 to 287 °C

# melting point (compound: Cc1ccccc1Cc1n[nH]c2c1c(=O)n(-c1cccc(C(F)(F)F)c1)c1ncccc21 (hydrate or solvate) [Example 40] ) is 249 to 252 °C

Per the record, O=c1c2c(CCCCCCc3ccccc3)n[nH]c2c2cccnc2n1-c1ccccc1 [Example 12] has melting point of 150 to 151 °C

Given item O=c1c2c(Cc3ccccc3)n[nH]c2c2cccnc2n1-c1cccc(OC(F)(F)F)c1 (hydrate or solvate) [Example 1] , the value recorded as its melting point is 249 to 251 °C

In plain terms, O=c1c2c(Cc3ccc(C(F)(F)F)cc3)n[nH]c2c2cccnc2n1-c1cccc(OC(F)(F)F)c1 [Example 25] has a documented melting point of 227 to 231 °C
